# MEASURED TARGET: recombinant human Mcl-1 (residues 171-327) / Bim interaction (Homo sapiens (Human), UniProt Q07820)
# Sequence (Q07820 171-327): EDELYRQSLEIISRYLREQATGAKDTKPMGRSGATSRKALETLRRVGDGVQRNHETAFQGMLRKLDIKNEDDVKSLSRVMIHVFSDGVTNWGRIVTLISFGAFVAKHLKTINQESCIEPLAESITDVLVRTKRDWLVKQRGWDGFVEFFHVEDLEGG
# ASSAY PROTOCOL: biochemical
# Assay type: binding
# SETUP CONDITIONS: 0.1 nM Mcl-1(171-327), 0.05 nM biotin-Bim (51-76); read-out: Mcl-1 HTRF IC50
ASSAY ENDPOINT: IC50 (nM)
Give the value, in units of nM, as a plain number.

Observe how each entry below is paired with its result.
Fill in: IC50 of COC[C@@H]1[C@@H](C)C/C=C/[C@](CN2CCN3CCCC[C@@H]3C2)(OC)[C@@H]2CC[C@H]2CN2C[C@@]3(CCCc4cc(Cl)ccc43)COc3ccc(cc32)C(=O)NS1(=O)=O is ___
0.14

Thanks! And CON(C)C[C@]1(OC)/C=C/C[C@H](C)[C@@H](C)S(=O)(=O)NC(=O)c2ccc3c(c2)N(C[C@@H]2CC[C@H]21)C[C@@]1(CCCc2cc(Cl)ccc21)CO3 ?
0.122

Thanks! And CO[C@]1(CN(C)CCN2CCOCC2)/C=C/C[C@H](C)[C@@H](C)S(=O)(=O)NC(=O)c2ccc3c(c2)N(C[C@@H]2CC[C@H]21)C[C@@]1(CCCc2cc(Cl)ccc21)CO3 ?
0.615

Thanks! And CO[C@@]1(CN2CCN(C(=O)N(C)C)CC2)/C=C/C[C@H](C)[C@@H](C)S(=O)(=O)NC(=O)c2ccc3c(c2)N(C[C@@H]2CC[C@H]21)C[C@@]1(CCCc2cc(Cl)ccc21)CO3 ?
0.23

Now examine the next entry.
Fill in: IC50 of C[C@@H]1[C@@H](C)C/C=C/[C@]2(CN(Cc3cccnc3)CCO2)[C@@H]2CC[C@H]2CN2C[C@@]3(CCCc4cc(Cl)ccc43)COc3ccc(cc32)C(=O)NS1(=O)=O is ___
4.74
